B1: MIA2 (parent)
chain: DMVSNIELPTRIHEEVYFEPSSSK

Variants of: B1
protocol.details: protein stability index of a GFP-peptide fusion (GPS, HEK-293T) (PSI 1-6); higher = more stable;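 also: lentivirally expressed fusions sorted by FACS into six bins by GFP to DsRed ratio, PSI derived from sequencing read proportions per bin multiplied by bin number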
condition.label: c terminus: a fixed tail appended
Answer each item with its documented protein stability index.
Answer with the value's number alone.

q: Form field: reported protein stability index of N5I
a: 3.86

q: Please do the same for F18H as well.
a: 4.64

q: Let us now turn to E19G
a: 3.09

q: Field entry: I6H
a: 4.34

q: // same read-out, input: H13A
a: 4

q: Likewise for E19L ?
a: 3.63

q: Next variant up: V3C
a: 3.97

q: Now the variant D1Q
a: 3.95

q: Same read-out for T10Q ?
a: 4.44

q: How about this variant: V3Q
a: 4.02

q: // same read-out, input: K24I
a: 2.98

q: What do you have for D1H ?
a: 4.67

q: Okay, and S4T ?
a: 3.73

q: Thanks! And H13G ?
a: 4.05

q: Again, but for E19C
a: 2.96

q: Try I12H next.
a: 3.42

q: Follow-up item: S22P
a: 4.02

q: And the next one, T10R ?
a: 3.63

q: // repeat for S21V and report
a: 3.94

q: Consider next the variant F18W in the same way.
a: 3.52

q: Thanks! And D1I ?
a: 2.36

q: Same thing, different variant: S22E
a: 4.13

q: Same for L8D
a: 4.54

q: And then E7G , what is it?
a: 3.58

q: Here is the next variant: D1Y
a: 3.42

q: Same thing, different variant: P20M
a: 1.88

q: Also check R11T
a: 4.27

q: Now consider V3S .
a: 4.26

q: Please do the same for E15R as well.
a: 2.96

q: What do you get for K24Y ?
a: 3.32

q: E15N , same question.
a: 3.29

q: Consider next the variant M2N in the same way.
a: 5.1

q: # iterate: S4N
a: 4.03

q: Now consider D1M .
a: 2.73

q: Next record, please: S22M
a: 3.81

q: Subsequent entry: V3D
a: 3.89

q: And then H13N , what is it?
a: 4.19

q: # iterate: M2Q
a: 5.01

q: # repeat for M2V
a: 3.64

q: Then this variant: L8S
a: 4.5

q: Item: V16Q
a: 4.02

q: For I12F then?
a: 3.57

q: Same thing, different variant: E15T
a: 3.9

q: Let us now turn to T10E
a: 4.01

q: Now consider I6P and answer again.
a: 4.4

q: Same thing, different variant: H13M
a: 3.02

q: Another variant to check: P9V
a: 2.94

q: Try the variant T10C
a: 1.67

q: Check V16F too.
a: 3.87

q: Same thing, different variant: H13C
a: 3.37

q: Try this variant next: F18Q
a: 5.12

q: And for V16Y ?
a: 3.49

q: // query: S4V
a: 3.33

q: Entry S21Q please
a: 3.9

q: Here is the next variant: I6Y
a: 4.03

q: Next: E19W
a: 2.72

q: Again, but for S21Y
a: 3.05

q: Okay, and P20E ?
a: 4.28

q: Ok, now Y17A
a: 3.67

q: Thanks! And V3T ?
a: 3.04

q: Another variant to check: P9G
a: 3.53

q: How about S21C ?
a: 3.71

q: // repeat for K24H and report
a: 3.56

q: And what about the variant P9L ?
a: 3.65

q: Next variant: T10V
a: 3.65

q: Same lookup for K24W , please.
a: 2.52

q: How about this variant: V16L
a: 4.09

q: Again, but for E15F
a: 2.62

q: Here is the next variant: N5A
a: 4.14

q: Record: E15M
a: 2.72

q: Repeat for the following variant: N5Y
a: 2.46

q: Try the variant S21F
a: 3.56

q: What about this variant? P20T
a: 3.62

q: What would you report for S21P ?
a: 4.3

q: Next variant up: K24F
a: 3.28

q: Same for S4R
a: 3.97

q: Same thing, different variant: P9K
a: 3.89

q: // repeat for P9D and report
a: 3.46

q: Same again, this time with E19N
a: 3.41

q: Also I6D ?
a: 4.86

q: Please do the same for E7F as well.
a: 3.59

q: Another variant to look at: R11A
a: 4.7

q: Subsequent entry: S21W
a: 3.38

q: Let us now turn to M2P
a: 5.15

q: Field entry: Y17F
a: 4.35

q: Entry to check: S23T
a: 3.92

q: Lookup H13I
a: 3.42

q: Follow-up item: I12C
a: 3.22

q: Same for H13W
a: 3.15

q: Would you kindly repeat that for S23I ?
a: 3.89

q: Now consider L8N and answer again.
a: 4.44
